Provenance of the data: paper PMC2756588

Molecular target: T1, Boi2, P39969
T1 sequence (P39969 32-116, looked up): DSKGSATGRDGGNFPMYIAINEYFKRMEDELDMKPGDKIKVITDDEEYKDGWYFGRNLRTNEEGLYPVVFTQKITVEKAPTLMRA
Assay: SPOT array
Settings: median of control spots 1161
recorded_endpoint: SPOT intensity

| binder | result |
| --- | --- |
| DLFKPLPEPPTELGR | 0 |
| TPEIPPPLPPKIMVH | 0 |
| YRRKSIPFAPHQITA | 1 |
| KLSRGRYGLPLSSRP | 1 |
| EQEEIAPSLPSRNSI | 1 |

Ask: Determine from records and report SPOT intensity for LKHGWKPLRPIKLIS
Reply: 0
